// provenance: patent US20120251551A1

system: LNCaP cells; assay: Proliferation assay with LNCaP cells; assay type: cell-based; conditions: Homo sapiens, 168 h, R1881 (1×10^−10) stimulated growth, day 7, read-out: inhibition IC50 (LNCaP)
pIC50: −log10 of the molar value.
Decision: pIC50 compared against 7; not below it gives met, below it gives not met.

Cn1nccc1-c1ccc(CN2C(=S)N(c3ccc(C#N)c(C(F)(F)F)c3)C(=O)C2(C)C)cn1 [Example 20] :: met
CC(C)(O)COc1ccc(CN2C(=S)N(c3ccc(C#N)c(C(F)(F)F)c3)C(=O)C2(C)C)cn1 [Example 10] :: not met

====

Test system: LNCaP cells
Assay: Proliferation assay with LNCaP cells
Format: cell-based
Conditions: Homo sapiens, 168 h, R1881 (1×10^−10) stimulated growth, day 7, read-out: inhibition IC50 (LNCaP)
Experimental: Proliferation Assay with LNCaP Cells LNCaP cells (Horoszewicz et al., in “Models for Prostate Cancer” (ed. G. P. Murphy), Alan R. Liss, New York 1981, p. 115-132; Horoszewicz et al., Cancer Res. 43:1809-1818, 1983) were seeded at 2000 cells/well in 96-well plates in RPMI (F1235, Biochrom AG, Berlin, Germany) without phenol red supplemented with 5% charcoal-stripped serum. […] Fluorescence was determined in Victor3 (Excitation 530 nm; emission 590 nm). […]
pIC50: −log10 of the molar value.
observed_property: pIC50

CC1(C)C(=O)N(c2ccc(C#N)c(C(F)(F)F)c2)C(=S)N1Cc1ccc(N2CCOCC2)nc1 [Example 4] :: 6.93
CC1(C)C(=O)N(c2ccc(C#N)c(C(F)(F)F)c2)C(=S)N1Cc1ccc(OCCN2CCOCC2)nc1 [Example 3] :: 6.90
CC1CN(c2ccc(CN3C(=S)N(c4ccc(C#N)c(C(F)(F)F)c4)C(=O)C3(C)C)cn2)CCO1 (stereo not drawn) [Example 7] :: 6.93
CN=S1(=O)CCN(c2ccc(CN3C(=S)N(c4ccc(C#N)c(C(F)(F)F)c4)C(=O)C3(C)C)cn2)CC1 [Example 22] :: 6.87
Cc1nccn1-c1ccc(CN2C(=S)N(c3ccc(C#N)c(C(F)(F)F)c3)C(=O)C2(C)C)cn1 [Example 15] :: 6.94
Cc1cn(-c2ccc(CN3C(=S)N(c4ccc(C#N)c(C(F)(F)F)c4)C(=O)C3(C)C)cn2)cn1 [Example 19] :: 7.02
